Where do the numbers come from? From paper PMC7778606.

- EXPERIMENT NOTES: Pharmacokinetic study in rats
- Format: in vivo, SD rats
- STATED CONDITIONS: SD, rat, plasma, 1 mg/kg; rats, intravenous; read-out: theoretical initial plasma concentration
QUANTITY NAME: C0 (µM)

> print(dat)
                                  structure  readout.units  measured.result
1  Nc1ncnc2c1c(-c1ccc(Cl)cc1)nn2CCn1cc(COc2ccc(Nc3nccc(Nc4cnc5ccccc5c4)n3)cc2)nn1             µM             33.3

----------
- Tested on: H226B cells
- EXPERIMENT NOTES: MTT assay, viability of H226B cells
- Assay type: cell-based
- STATED CONDITIONS: Homo sapiens, 72 h, three days, read-out: IC50 against the viability
QUANTITY NAME: IC50 (nM)

> print(dat)
                                  structure  system.name  readout.units  measured.result
1  Nc1ncnc2c1c(-c1ccc(Cl)cc1)nn2CCn1cc(COc2ccc(Nc3nccc(Nc4cnc5ccccc5c4)n3)cc2)nn1  H226B cells             nM             1370

----------
- EXPERIMENT NOTES: Pharmacokinetic study in rats
- Format: in vivo, SD rats
- STATED CONDITIONS: SD, rat, plasma; rats, intravenous, 1 mg/kg
QUANTITY NAME: AUC(0-inf) (ng·h/mL)

> print(dat)
                                  structure  readout.units  measured.result
1  Nc1ncnc2c1c(-c1ccc(Cl)cc1)nn2CCn1cc(COc2ccc(Nc3nccc(Nc4cnc5ccccc5c4)n3)cc2)nn1        ng·h/mL              852

----------
- EXPERIMENT NOTES: Pharmacokinetic study in rats
- Assay type: in vivo, SD rats
- STATED CONDITIONS: SD, rat, plasma; rats, intravenous, 1 mg/kg; read-out: C0 (theoretical initial plasma concentration)
QUANTITY NAME: C0 (ng/mL)

> print(dat)
                                  structure  measured.result
1  Nc1ncnc2c1c(-c1ccc(Cl)cc1)nn2CCn1cc(COc2ccc(Nc3nccc(Nc4cnc5ccccc5c4)n3)cc2)nn1            22700

----------
- Tested on: H460/PmR cells
- EXPERIMENT NOTES: MTT assay, viability of pemetrexed-resistant H460/PmR cells
- Assay type: cell-based
- STATED CONDITIONS: Homo sapiens, NCI-H460, 72 h, three days, read-out: IC50 against the viability
pIC50: −log10 of the molar value.
QUANTITY NAME: pIC50

> print(dat)
                                  structure  quantity.name  measured.result
1  Nc1ncnc2c1c(-c1ccc(Cl)cc1)nn2CCn1cc(COc2ccc(Nc3nccc(Nc4cnc5ccccc5c4)n3)cc2)nn1          pIC50             5.44

----------
- EXPERIMENT NOTES: Pharmacokinetic study in rats
- Type: in vivo, SD rats
- STATED CONDITIONS: SD, rat, plasma; rats, intravenous, 1 mg/kg
QUANTITY NAME: half-life

> print(dat)
                                   molecule  quantity.name  measured.result
1  Nc1ncnc2c1c(-c1ccc(Cl)cc1)nn2CCn1cc(COc2ccc(Nc3nccc(Nc4cnc5ccccc5c4)n3)cc2)nn1 [LL6]      half-life         29.1 min
